B1: OR4K15 (parent)
chain: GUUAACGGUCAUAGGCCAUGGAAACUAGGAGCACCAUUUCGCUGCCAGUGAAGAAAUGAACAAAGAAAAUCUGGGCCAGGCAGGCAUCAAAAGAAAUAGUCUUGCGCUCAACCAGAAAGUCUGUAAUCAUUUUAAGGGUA

variants of: B1; assay: self-cleavage, relative activity (ratio to wild type); higher = more cleavage; in vitro, sequencing; the parent is a self-cleaving ribozyme
Please note: Condition met applies when self-cleavage is 1 or greater, and Condition not met applies otherwise.

# example entries with known answers
| Variant Id | Discrete Label |
| --- | --- |
| G58U | Condition met |
| A95G G137A | Condition not met |
| A18G U130A | Condition met |

Now consider the entry below.
Q: Reported self-cleavage reaches at least 1 for A59G A116C ?
A: Condition not met
